Organism: Homo sapiens
Experiment: Selectivity index, ratio of Ki for Bcl-2 (unknown origin) to Ki for Bcl-XL (unknown origin)
Categorized via Ratio Ki: LOW (below 5), MID (5 to below 10), HIGH (10 or more)

INSERT INTO assay_data (molecule, classlabel) VALUES
  ('O=C(Cc1ccccc1)Nc1ccc(C(=O)NS(=O)(=O)c2ccc(NCCSc3ccccc3)c([N+](=O)[O-])c2)cc1', 'MID'),
  ('C=C(c1ccc(C(=O)Nc2ccc(C(=O)NS(=O)(=O)c3ccc(NCCSc4ccccc4)c([N+](=O)[O-])c3)cc2)cc1)c1cc2c(cc1C)C(C)(C)CCC2(C)C', 'LOW'),
  ('O=C(Nc1ccc(C(=O)NS(=O)(=O)c2ccc(NCCSc3ccccc3)c([N+](=O)[O-])c2)cc1)c1ccccc1', 'LOW'),
  ('O=C(/C=C/c1ccc(C(F)(F)F)cc1)Nc1ccc(C(=O)NS(=O)(=O)c2ccc(NCCSc3ccccc3)c([N+](=O)[O-])c2)cc1', 'LOW'),
  ('O=C(CCc1ccccc1)Nc1ccc(C(=O)NS(=O)(=O)c2ccc(NCCSc3ccccc3)c([N+](=O)[O-])c2)cc1', 'HIGH'),
  ('C=C(c1ccc(C(=O)NS(=O)(=O)c2ccc(NCCSc3ccccc3)c([N+](=O)[O-])c2)cc1)c1cc2c(cc1C)C(C)(C)CCC2(C)C', 'LOW'),
  ('COc1ccccc1/C=C/C(=O)Nc1ccc(C(=O)NS(=O)(=O)c2ccc(NCCSc3ccccc3)c([N+](=O)[O-])c2)cc1', 'MID'),
  ('Cc1ccc(/C=C/C(=O)Nc2ccc(C(=O)NS(=O)(=O)c3ccc(NCCSc4ccccc4)c([N+](=O)[O-])c3)cc2)cc1', 'HIGH'),
  ('O=C(/C=C/c1ccccc1)Nc1ccc(C(=O)NS(=O)(=O)c2ccc(NCCSc3ccccc3)c([N+](=O)[O-])c2)cc1', 'HIGH'),
  ('O=C(/C=C/c1cccc(Cl)c1)Nc1ccc(C(=O)NS(=O)(=O)c2ccc(NCCSc3ccccc3)c([N+](=O)[O-])c2)cc1', 'LOW'),
  ('COc1cccc(/C=C/C(=O)Nc2ccc(C(=O)NS(=O)(=O)c3ccc(NCCSc4ccccc4)c([N+](=O)[O-])c3)cc2)c1', 'HIGH');
